# TEST: Kinetic solubility
# CONDITION CONTEXT: kinetic from dmso stock, Solubility, kinetic solubility; n = 1 or average of n = 2-3
Measured solubility, listed per entry.
Write the number in µM without appending the unit.

## Input Dear colleague, I am looking for the recorded solubility of the following molecule: `N#C[C@@H]1CSCN1C(=O)CNC(=O)c1ccnc2ccc(N3C[C@H](F)[C@@H](F)C3)cc12`
## Output 100

====

# TEST: Metabolic stability in human liver microsomes (HLM)
# CONDITION CONTEXT: human, liver microsomes, HLM CLint, n = 1 or average of n = 2-3
READOUT LABEL: microsomal CLint (µL/min/mg)
Express the result in µL/min/mg but write the number alone.

## Input Which measured microsomal CLint value corresponds to `N#C[C@@H]1CSCN1C(=O)CNC(=O)c1ccnc2ccc(N3CC(COC(F)(F)F)C3)cc12` ?
## Output 54

====

# MEASURED ON: human Fibroblast activation protein alpha (hFAP) (Homo sapiens (Human))
# Sequence (Q12884 38-760): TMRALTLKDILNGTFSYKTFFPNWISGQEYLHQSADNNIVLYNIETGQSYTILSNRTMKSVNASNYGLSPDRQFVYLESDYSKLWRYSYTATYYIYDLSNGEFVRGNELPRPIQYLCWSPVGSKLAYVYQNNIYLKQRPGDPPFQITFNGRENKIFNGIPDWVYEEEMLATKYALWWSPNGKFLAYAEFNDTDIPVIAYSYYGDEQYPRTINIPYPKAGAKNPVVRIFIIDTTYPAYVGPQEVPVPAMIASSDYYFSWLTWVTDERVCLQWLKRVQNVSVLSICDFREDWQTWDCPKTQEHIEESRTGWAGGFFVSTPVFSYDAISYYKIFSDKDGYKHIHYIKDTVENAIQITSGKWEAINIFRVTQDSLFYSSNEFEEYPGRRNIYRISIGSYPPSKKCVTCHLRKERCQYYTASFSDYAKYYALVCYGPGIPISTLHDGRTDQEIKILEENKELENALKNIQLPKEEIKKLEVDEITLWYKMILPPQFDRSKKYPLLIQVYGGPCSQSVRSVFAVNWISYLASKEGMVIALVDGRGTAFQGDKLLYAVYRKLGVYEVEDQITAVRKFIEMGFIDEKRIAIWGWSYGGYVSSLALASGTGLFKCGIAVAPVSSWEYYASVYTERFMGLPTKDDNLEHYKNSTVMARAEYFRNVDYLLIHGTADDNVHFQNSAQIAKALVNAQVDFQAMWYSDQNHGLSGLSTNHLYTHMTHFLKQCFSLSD
The following molecules are shown together with reported IC50 values.
Please reply with the bare figure in nM and do not write the unit itself.

# example entries with known answers
>  <MOLECULE>
N#C[C@@H]1CSCN1C(=O)CNC(=O)c1ccnc2ccc(N3CCC4(CC3)OCCO4)cc12

>  <UNIT OF MEASUREMENT>
nM

>  <IC50>
0.087

$$$$
>  <MOLECULE>
N#C[C@@H]1CSCN1C(=O)CNC(=O)c1ccnc2ccc(N3C4CCCC3COC4)cc12

>  <UNIT OF MEASUREMENT>
nM

>  <IC50>
0.074

$$$$
>  <MOLECULE>
N#C[C@@H]1CSCN1C(=O)CNC(=O)c1ccnc2ccc(N3CC[C@@H](F)C3)cc12

>  <UNIT OF MEASUREMENT>
nM

>  <IC50>
0.045

$$$$

Continue with the molecule presented below.
## Input Tell me the measured IC50 of N#C[C@@H]1CSCN1C(=O)CNC(=O)c1ccnc2ccc(N3C[C@@H]4CC[C@H]3C4)cc12 (mixture of isomers) , please.
## Output 0.18

====

# TEST: Metabolic stability in rat hepatocytes (rHep)
# CONDITION CONTEXT: n = 1 or geometric mean of n = 2-3
Classification field: enter 1 (yes) for rHep CLint values not below 10 μL/min/1E6, 0 (no) for values below it.

>  <SUBSTANCE SMILES>
CS(=O)(=O)C[C@@H]1CN(c2ccc3nccc(C(=O)NCC(=O)N4CSC[C@H]4C#N)c3c2)CCO1

>  <CATEGORY>
0 (no)

$$$$
>  <SUBSTANCE SMILES>
N#C[C@@H]1CSCN1C(=O)CNC(=O)c1c(F)cnc2ccc(N3CCOCC3)cc12

>  <CATEGORY>
0 (no)

$$$$
>  <SUBSTANCE SMILES>
CC1(CS(C)(=O)=O)CN(c2ccc3nccc(C(=O)NCC(=O)N4CSC[C@H]4C#N)c3c2)C1

>  <CATEGORY>
0 (no)

$$$$
>  <SUBSTANCE SMILES>
CO[C@@H]1CN(c2ccc3nccc(C(=O)NCC(=O)N4CSC[C@H]4C#N)c3c2)[C@H]1C

>  <CATEGORY>
0 (no)

$$$$
>  <SUBSTANCE SMILES>
COC[C@H]1[C@H](C)OCCN1c1ccc2nccc(C(=O)NCC(=O)N3CSC[C@H]3C#N)c2c1

>  <CATEGORY>
1 (yes)

$$$$

## Input // inclusive: rHep CLint at least 10 μL/min/1E6? input: `C[C@H]1COCCCN1c1ccc2nccc(C(=O)NCC(=O)N3CSC[C@H]3C#N)c2c1`
## Output 1 (yes)

## Input Quick check, rHep CLint >= 10 μL/min/1E6? `N#C[C@@H]1CSCN1C(=O)CNC(=O)c1ccnc2ccc(-c3cncnc3)cc12`
## Output 0 (no)

## Input Confirm if rHep CLint reported for the compound `N#C[C@@H]1CSCN1C(=O)CNC(=O)c1ccnc2ccc(N3CC(F)(CF)C3)cc12` is 10 μL/min/1E6 or above.
## Output 0 (no)

## Input Item `N#C[C@@H]1CSCN1C(=O)CNC(=O)c1ccnc2ccc(N3CCCCC3)cc12` with rHep CLint of 10 μL/min/1E6 or above?
## Output 1 (yes)

## Input rHep CLint >= 10 μL/min/1E6 for `CC1(O)CN(c2ccc3nccc(C(=O)NCC(=O)N4CSC[C@H]4C#N)c3c2)C1` ?
## Output 0 (no)

## Input Reported rHep CLint at or above 10 μL/min/1E6? `N#C[C@@H]1CSCN1C(=O)CNC(=O)c1ccnc2ccc(N3CCC4(CC4)C3)cc12`
## Output 1 (yes)

## Input Check this compound for rHep CLint at or above 10 μL/min/1E6: `N#C[C@@H]1CSCN1C(=O)CNC(=O)c1ccnc2ccc(N3CC4(CCCC4(F)F)C3)cc12`
## Output 1 (yes)

## Input Exam item: decide whether the reported rHep CLint for `C[C@@H]1COC[C@H](C)N1c1cc2c(C(=O)NCC(=O)N3CSC[C@H]3C#N)ccnc2cc1Br` is at least 10 μL/min/1E6.
## Output 1 (yes)

## Input Given `N#C[C@@H]1CSCN1C(=O)CNC(=O)c1ccnc2ccc(N3CCCC(F)(F)C3)cc12` , state whether its rHep CLint is at least 10 μL/min/1E6.
## Output 1 (yes)

## Input Quick check: does `CCC1(O)CCN(c2ccc3nccc(C(=O)NCC(=O)N4CSC[C@H]4C#N)c3c2)CC1` have rHep CLint greater than or equal to 10 μL/min/1E6?
## Output 0 (no)

## Input Would you say `N#C[C@@H]1CSCN1C(=O)CNC(=O)c1ccnc2ccc(N3CCC34CCC4)cc12` shows rHep CLint at minimum 10 μL/min/1E6?
## Output 1 (yes)

====

Listed molecules paired with reported hFAP Binding assay k(off)
# MEASURED ON: UniProtKB Q12884
# TEST: hFAP binding assay (surface plasmon resonance)
# CONDITION CONTEXT: SPR, 20° C., single cycle kinetics
Your answer is read as s⁻¹, so omit the unit and give the number.

>  <MOLECULE>
CC1(C)CN(c2ccc3nccc(C(=O)NCC(=O)N4CSC[C@H]4C#N)c3c2)CCO1 [Example 88]

>  <UNIT OF MEASUREMENT>
s⁻¹

>  <hFAP Binding assay k(off)>
0.00034

$$$$
>  <MOLECULE>
N#C[C@@H]1CSCN1C(=O)CNC(=O)c1ccnc2ccc(N3CC(F)(C(F)(F)F)C3)cc12 [Example 143]

>  <UNIT OF MEASUREMENT>
s⁻¹

>  <hFAP Binding assay k(off)>
0.000057

$$$$
>  <MOLECULE>
CO[C@H]1CCCN(c2ccc3nccc(C(=O)NCC(=O)N4CSC[C@H]4C#N)c3c2)C1 (mixture of isomers) [Example 41]

>  <UNIT OF MEASUREMENT>
s⁻¹

>  <hFAP Binding assay k(off)>
0.000064

$$$$
>  <MOLECULE>
N#C[C@@H]1CSCN1C(=O)CNC(=O)c1ccnc2ccc(N3CCCCC3)cc12 [Example 32]

>  <UNIT OF MEASUREMENT>
s⁻¹

>  <hFAP Binding assay k(off)>
0.000029

$$$$
>  <MOLECULE>
C[C@@H]1CN(c2ccc3nccc(C(=O)NCC(=O)N4CSC[C@H]4C#N)c3c2)C[C@@H](C)O1 [Example 70]

>  <UNIT OF MEASUREMENT>
s⁻¹

>  <hFAP Binding assay k(off)>
0.00014

$$$$
>  <MOLECULE>
CC(F)(F)C1CN(c2ccc3nccc(C(=O)NCC(=O)N4CSC[C@H]4C#N)c3c2)C1 [Example 147]

>  <UNIT OF MEASUREMENT>
s⁻¹

>  <hFAP Binding assay k(off)>
0.00012

$$$$
>  <MOLECULE>
C[C@H]1COCCCN1c1ccc2nccc(C(=O)NCC(=O)N3CSC[C@H]3C#N)c2c1 [Example 63]

>  <UNIT OF MEASUREMENT>
s⁻¹

>  <hFAP Binding assay k(off)>
0.000059

$$$$
>  <MOLECULE>
N#C[C@@H]1CSCN1C(=O)CNC(=O)c1ccnc2ccc(N3CC4(CC4)C[C@@H]3CF)cc12 [Example 58]

>  <UNIT OF MEASUREMENT>
s⁻¹

>  <hFAP Binding assay k(off)>
0.091

$$$$
>  <MOLECULE>
C[C@]1(F)CCN(c2ccc3nccc(C(=O)NCC(=O)N4CSC[C@H]4C#N)c3c2)C1 (mixture of isomers) [Example 198]

>  <UNIT OF MEASUREMENT>
s⁻¹

>  <hFAP Binding assay k(off)>
0.00011

$$$$
>  <MOLECULE>
N#C[C@@H]1CSCN1C(=O)CNC(=O)c1ccnc2ccc(N3C[C@H]4CCC[C@@H](C3)O4)cc12 [Example 194]

>  <UNIT OF MEASUREMENT>
s⁻¹

>  <hFAP Binding assay k(off)>
0.000068

$$$$

## Input Quick check: hFAP Binding assay k(off) of C[C@H]1CN(c2ccc3nccc(C(=O)NCC(=O)N4CSC[C@H]4C#N)c3c2)C[C@H](C)O1 [Example 78] ?
## Output 0.00010

## Input May I ask what hFAP Binding assay k(off) has been recorded for Cc1noc(C)c1-c1ccc2nccc(C(=O)NCC(=O)N3CSC[C@H]3C#N)c2c1 [Example 216] ?
## Output 0.0009

## Input For the molecule N#C[C@@H]1CSCN1C(=O)CNC(=O)c1ccnc2ccc(N3CCC[C@@H]3C3CC3)cc12 (single isomer, unassigned) [Example 199] , what hFAP Binding assay k(off) is on record?
## Output 0.00026

## Input # query: hFAP Binding assay k(off) of entry N#C[C@@H]1CSCN1C(=O)CNC(=O)c1ccnc2ccc(N3CCC[C@H]3C(F)(F)F)cc12 [Example 56]
## Output 0.00011

## Input Query (molecule): N#C[C@@H]1CSCN1C(=O)CNC(=O)c1ccnc2ccc(N3C[C@H](F)[C@@H](F)C3)cc12 [Example 213] ; field requested: hFAP Binding assay k(off)
## Output 0.00017
